Numbers sourced from patent US20060003989A1.

test: Intranasal vs oral galantamine PK in canine subject (plasma, CSF); conditions: dog, plasma, inhaled or intranasal, 0.8 mg/kg
MEASURED METRIC: Tmax

Incoming: Tell me Tmax reported for COc1ccc2c3c1O[C@H]1C[C@@H](O)C=C[C@@]31CCN(C)C2 [galantamine]
Outgoing: ~30 min
